Test system: eIF2α
Assay: eIF2α phosphorylation measured by Western blot
Type: cell-based
Conditions: Western blot; unit or reference not given
Excerpt: As a non-limiting example, compounds 1272 and 1273 (set forth in Table 1) were synthesized starting from 3-bromoaniline, which upon condensation with hydroxylamine and chloral hydrate followed by concentrated sulfuric acid yielded an inseparable regioisomeric mixture of 4- and 6-bromo isatins. The addition of the two phenyl groups to the three position of the oxindole allowed easy chromatographic separation of the 4- and 6-bromo-3,3-diphenyloxindoles 1272 and 1273. […]
value_kind: eIF2α-P (phosphorylation of eIF2α measured by Western blot)
Reply: number alone, nothing else.

A selection of reference data follows.
In [3]: df
Out[3]:
                                   compound  quantitative_readout
0  CC(C)(C)c1ccc(O)c(C2(c3cccc(Cl)c3)C(=O)Nc3ccccc32)c1 (centres unmarked)                  3.24
1   CCc1cccc2c1C(c1ccccc1)(c1ccccc1)C(=O)N2                  1.68
2  CCCCCCCCCCCCC1(c2cc(C(C)(C)C)ccc2O)C(=O)Nc2ccccc21 (centres unmarked)                  0.91
3  CC(C)Cc1ccc(O)c(C2(c3ccccc3)C(=O)Nc3ccccc32)c1 (centres unmarked)                  7.94
4  O=C(O)c1cccc2c1NC(=O)C2(c1ccccc1)c1ccccc1                  1.54

Data request: Lookup: eIF2α-P (phosphorylation of eIF2α measured by Western blot) / eIF2α / `O=C1Nc2c(Cn3ccnc3)ccc(Cl)c2C1(c1ccccc1)c1ccccc1`
Data returned: 2.56

Data request: Record: CC(C)(C)c1ccc(O)c(C2(c3ccccc3)C(=O)Nc3ccc(Cl)cc32)c1 (centres unmarked)
Data returned: 1.1

* * *

assay: Plasma levels after oral administration (LC-MS); type: in vivo; details: mouse, oral 240 mg/kg, 1 hour, DBA/2J mice
value_kind: concentration at 1 h (µM)
Give a bare numeral; the unit µM is implied.

Data request: For the compound Cc1cc(C2(c3ccccc3)C(=O)Nc3ccccc32)c(NS(=O)(=O)c2ccc(C(C)(C)C)cc2)cc1O (stereo not shown) , what concentration at 1 h is on record?
Data returned: 6.8

* * *

system: A549 lung cancer cells; assay: SRB growth inhibition of A549 lung cancer cells; format: cell-based, human; details: Homo sapiens; A549 lung cancer cells; unit inferred; read-out: SRB (IC50 for growth inhibition of A549 lung cancer cells)
value_kind: pIC50
In simple prose, pIC50 is minus the logarithm base ten of a concentration in moles per litre.

>>> print(df.to_string())
                                   compound  value_kind  quantitative_readout
0  CC(C)(C)c1ccc(O)c(C2(c3ccccc3)C(=O)Nc3ccccc32)c1 (centres unmarked)       pIC50                  5.52
1  CC(C)(C)c1ccc(OCC#N)c(C2(c3ccccc3)C(=O)N(CC#N)c3ccccc32)c1 (centres unmarked)       pIC50                  5.40

Now consider a different compound.
Data request: For the compound Cc1cc(C2(c3ccccc3)C(=O)Nc3ccccc32)c(NS(=O)(=O)c2ccc(C(C)(C)C)cc2)cc1O (centres unmarked) , what pIC50 is on record?
Data returned: 6.05

* * *

system: eIF2α; assay: eIF2α phosphorylation measured by Western blot; type: cell-based; settings: Western blot; unit or reference not given
value_kind: eIF2α-P (phosphorylation of eIF2α measured by Western blot)
Reply: number alone, nothing else.

>>> df
                                   compound  target_desc  quantitative_readout
0  COC(=O)C(Cc1ccc(O)c(C2(c3ccccc3)C(=O)Nc3ccccc32)c1)NC(=O)OCC1c2ccccc2-c2ccccc21 (stereo not shown)        eIF2α                  1.94
1  CC(C)(C)c1ccc(O)c(C2(c3ccccc3)C(=O)Nc3ccc(Br)cc32)c1 (stereo not shown)        eIF2α                  1.14
2  COC(=O)c1ccc(Cl)c2c1NC(=O)C2(c1ccccc1)c1ccccc1        eIF2α                  1.35

Now consider a different compound.
Data request: For the compound CC(C)(C)c1ccc(C2(c3ccccc3)C(=O)Nc3ccccc32)cc1 (stereo not shown) , what eIF2α-P (phosphorylation of eIF2α measured by Western blot) is on record?
Data returned: 1.27

* * *

test system: eIF2α; assay: eIF2α phosphorylation measured by Western blot; format: cell-based; conditions: Western blot; unit or reference not given
eIF2α-P (phosphorylation of eIF2α measured by Western blot) by entry:
Reply: number alone, nothing else.

A selection of reference data follows.
                                   compound  quantitative_readout
0  COc1ccc(C2(c3ccccc3)C(=O)Nc3ccccc32)cc1 (stereo not shown) [Compound 1294]                  1.52
1  CCc1ccc2c(c1)C(c1ccccc1)(c1ccccc1)C(=O)N2 [Compound 1269]                  1.64
2  CC(C)CC(NC(=O)COc1ccc(C(C)(C)C)cc1C1(c2ccccc2)C(=O)Nc2ccccc21)C(=O)NC(CO)Cc1ccccc1 (stereo not shown) [Compound 1400]                  3.70

Now consider a different compound.
Data request: For the compound CC(C)(C)c1ccc(C2(c3ccccc3O)C(=O)Nc3ccccc32)cc1 (stereo not shown) [Compound 1239] , what eIF2α-P (phosphorylation of eIF2α measured by Western blot) is on record?
Data returned: 1.88

* * *

test: Plasma levels after oral administration (LC-MS); type: in vivo; conditions: mouse, oral 320 mg/kg, 3 hours, DBA/2J mice
value_kind: concentration at 3 h
Lab note: write values as number then unit, every time.

Data request: For the compound Cc1cc(C2(c3ccccc3)C(=O)Nc3ccccc32)c(NS(=O)(=O)c2ccc(C(C)(C)C)cc2)cc1O (stereo not shown) , what concentration at 3 h is on record?
Data returned: 3.8 µM

* * *

assay: Plasma levels after oral administration (LC-MS); type: in vivo; conditions: mouse, oral 320 mg/kg, 6 hours, DBA/2J mice
value_kind: concentration at 6 h
Lab note: write values as number then unit, every time.

Data request: For the molecule Cc1cc(C2(c3ccccc3)C(=O)Nc3ccccc32)c(NS(=O)(=O)c2ccc(C(C)(C)C)cc2)cc1O (stereo not shown) , what concentration at 6 h is on record?
Data returned: 2800 nM

* * *

Test: Plasma levels after oral administration (LC-MS)
Assay type: in vivo
Details: mouse, oral 240 mg/kg, 3 hours, DBA/2J mice
Description: Ternary complex assay was 8-fold over DMSO at 20 μM, and cell growth was inhibited at <1 μM. The plasma levels for this in mice were estimated using liquid chromatography and mass spectrometry (LC-MS). Compound 1430 was orally administered at 160 mg/kg, 240 mg/kg, and 320 mg/kg to DBA/2J mice and the plasma concentration was measured at three time points, one hour, three hours, and six hours, and is set forth in Table 15. […]
value_kind: concentration at 3 h (µM)
Give a bare numeral; the unit µM is implied.

Data request: For the molecule Cc1cc(C2(c3ccccc3)C(=O)Nc3ccccc32)c(NS(=O)(=O)c2ccc(C(C)(C)C)cc2)cc1O (stereo not shown) , what concentration at 3 h is on record?
Data returned: 4

* * *

eIF2α-P (phosphorylation of eIF2α measured by Western blot) by entry:
test system: eIF2α; test: eIF2α phosphorylation measured by Western blot; type: cell-based; conditions: Western blot; unit or reference not given
Reply: number alone, nothing else.

A selection of reference data follows.
In [3]: df
Out[3]:
                                   compound  quantitative_readout
0  COC(=O)c1cccc2c1NC(=O)C2(c1ccccc1)c1ccccc1                  1.74
1  CC(C)(C)c1ccc(O)c(C2(c3ccccc3)C(=O)Nc3c(I)cccc32)c1 (stereo not drawn)                  2.05

Now consider a different compound.
Data request: Lookup: eIF2α-P (phosphorylation of eIF2α measured by Western blot) / eIF2α / CC(C)(C)c1ccc(O)c(C2(c3ccc(F)cc3)C(=O)Nc3ccccc32)c1 (stereo not drawn)
Data returned: 1.86

* * *

system: eIF2α; test: eIF2α phosphorylation measured by Western blot; format: cell-based; details: Western blot; unit or reference not given
Threshold check on eIF2α-P (phosphorylation of eIF2α measured by Western blot): at or above 3 gives MET, strictly below gives NOT MET.

# example entries with known answers
>>> df
                                   molecule  target_desc    class
0  O=C(O)c1ccc(Cl)c2c1NC(=O)C2(c1ccccc1)c1ccccc1        eIF2α  NOT MET
1  CC(C)(C)c1ccc(O)c(C2(c3ccccc3)C(=O)Nc3cccc(Br)c32)c1 (centres unmarked)        eIF2α  NOT MET
2     O=C1Nc2cccc(Br)c2C1(c1ccccc1)c1ccccc1        eIF2α  NOT MET
3  Cc1cc(C2(c3ccccc3)C(=O)Nc3ccccc32)c(NS(=O)(=O)c2cccc(C(F)(F)F)c2)cc1O (centres unmarked)        eIF2α  NOT MET
4  O=C1Nc2ccccc2C1(c1ccccc1)c1cc(C2CCCC2)ccc1O (centres unmarked)        eIF2α      MET

Data request: Item `O=C1Nc2ccccc2C1(c1ccccc1)c1ccccc1` with eIF2α-P (phosphorylation of eIF2α measured by Western blot) of 3 or above?
Data returned: NOT MET

Data request: Record: `O=C1Nc2ccc(S(=O)(=O)O)cc2C1(c1ccccc1)c1ccccc1`
Data returned: NOT MET

Data request: Record: Cc1cc(C2(c3ccccc3)C(=O)Nc3ccccc32)c(NS(=O)(=O)c2ccc(Br)cc2)cc1O (centres unmarked)
Data returned: MET

Data request: Record: Cc1cc(C2(c3ccccc3)C(=O)Nc3ccccc32)c(NS(=O)(=O)c2ccc(C(C)(C)C)cc2)cc1O (centres unmarked)
Data returned: MET

Data request: Record: `O=C1Nc2c(Br)cccc2C1(c1ccccc1)c1ccccc1`
Data returned: NOT MET
